- Tested on: ZR-75-30 (Breast Carcinoma);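 note: after 72 h of two-drug dosing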
- Assay notes: Bliss excess, mean over the matrix (fraction); higher = more synergy
Assay endpoint: Bliss excess
Reply with just the number.

Compound	Value measured
Cc1nc(Nc2ncc(C(=O)Nc3c(C)cccc3Cl)s2)cc(N2CCN(CCO)CC2)n1 [Dasatinib] + CC(=O)Nc1cccc(-n2c(=O)n(C3CC3)c(=O)c3c(Nc4ccc(I)cc4F)n(C)c(=O)c(C)c32)c1 [Trametinib] (first compound max 2 µM, 7x7, partner max 1 µM)	-0.0511

# next compound below
Ask: Look up and report measured Bliss excess (ZR-75-30 (Breast Carcinoma)) for the following compound: CN(CCO)CC[C@H](CSc1ccccc1)Nc1ccc(S(=O)(=O)NC(=O)c2ccc(N3CCC([C@@H](O)c4ccccc4-c4ccc(Cl)cc4)CC3)cc2)cc1S(=O)(=O)C(F)(F)F [AZD4320] + Cc1cc2ncnn2cc1Nc1ncc2c(n1)n(C1CCOCC1)c(=O)n2C [AZD7648] (first compound max 1 µM, 7x7, partner max 10 µM)
Reply: -0.0359
